Plant response rating, Kochia values by entry
Tested on: kochia (Kochia scoparia)
measurement-description: Test D controlled growth environment herbicide test, pre- and postemergence
Assay type: in vivo
condition: postemergence, 62 g ai/ha; scale 0 to 100, 0 no effect, 100 complete control
Please reply with the value in numeric form only.

Record excerpt, results attached:
Tell me reported Plant response rating, Kochia for "CCC(=O)Oc1c(C)nn(C)c(=O)c1-c1c(C)sc2ccc(C)cc12" , tested with kochia (Kochia scoparia).
90

Now the compound "Cc1nn(C)c(=O)c(-c2c(C)sc3ccc(Cl)cc23)c1O"
95

Now the compound "COc1nn(C)c(=O)c(-c2c(C)ccc3ccccc23)c1OC(=O)OC(C)C"
95

Now the compound "COc1nn(C)c(=O)c(-c2c(C)ccc3ccccc23)c1O"
95

With those in mind, consider the next compound.
Tell me reported Plant response rating, Kochia for "CCC(=O)Oc1c(C)nn(C)c(=O)c1-c1c(C)sc2ccc(Cl)cc12" , tested with kochia (Kochia scoparia).
100

====

System: wheat (Triticum aestivum)
measurement-description: Test A greenhouse herbicide test, pre- and postemergence
Assay type: in vivo
condition: Postemergence, 125 g ai/ha; 0 to 100 scale where 0 is no effect and 100 is complete control
Plant response rating, Wheat values by entry

Value lookup for Plant response rating, Wheat; key = COC(=O)Oc1c(Br)nn(C)c(=O)c1-c1c(C)ccc2ccccc12 [Compound 137]
50

Now the molecule CC(=O)Oc1c(C)nn(C)c(=O)c1-c1ccc(F)c2ccccc12 [Compound 90]
20

Now the molecule COC(=O)Oc1c(C)nn(C)c(=O)c1-c1c(C)sc2c(C)cc(C)cc12 [Compound 81]
0

---
Value lookup for Plant response rating, Wheat; key = Cc1cc(C)c2sc(C)c(-c3c(OC(=O)OCCCl)c(C)nn(C)c3=O)c2c1 [Compound 85]
0

Now the molecule COc1nn(C)c(=O)c(-c2c(C)ccc3ccccc23)c1O [Compound 54]
20

Now the molecule Cc1cc(C)c2c(-c3c(OC(=O)C(C)(C)C)c(C)nn(C)c3=O)c(C)sc2c1 [Compound 45]
0

Now the molecule CCc1nn(C)c(=O)c(-c2c(C)oc3ccccc23)c1O [Compound 117]
0

====

System: barnyardgrass (Echinochloa crus-galli)
measurement-description: Test C greenhouse herbicide test, pre- and postemergence
Type: in vivo
condition: Postemergence, 125 g ai/ha; scale 0 to 100, 0 is no effect, 100 is complete control
Output 1 for records whose Plant response rating, Barnyardgrass is lower than 40, -1 for records at or above 40.

Example cases with answers are listed next.
Lab note: Plant response rating, Barnyardgrass threshold 40. Does this compound come in strictly under it? "Cc1cc(C)c2sc(C)c(-c3c(OC(=O)OC(C)C)c(C)nn(C)c3=O)c2c1"
1

Now the compound "CCC(=O)Oc1c(Cl)nn(C)c(=O)c1-c1c(C)sc2ccc(Cl)cc12"
-1

Now the compound "COc1nn(C)c(=O)c(-c2c(C)ccc3ccccc23)c1OC(C)=O"
1

Now the compound "COc1nn(C)c(=O)c(-c2c(C)ccc3ccccc23)c1OC(=O)OC(C)C"
1

Now the compound "CCC(=O)Oc1c(C)nn(C)c(=O)c1-c1c(C)sc2ccc(C)cc12"
1

Now the compound "CC(=O)Oc1c(C)nn(C)c(=O)c1-c1ccc(F)c2ccccc12"
-1

Now the compound "Cc1cc(C)c2ccccc2c1-c1c(OS(C)(=O)=O)c(C)nn(C)c1=O"
-1

Now the compound "CCCC(=O)Oc1c(C)nn(C)c(=O)c1-c1c(C)sc2c(C)cc(C)cc12"
1

---
Lab note: Plant response rating, Barnyardgrass threshold 40. Does this compound come in strictly under it? "Cc1ccc2sc(C)c(-c3c(O)c(C)nn(C)c3=O)c2c1"
1

Now the compound "COC(=O)Oc1c(Br)nn(C)c(=O)c1-c1c(C)ccc2ccccc12"
-1

====

Test system: bromegrass, downy (downy bromegrass, Bromus tectorum)
measurement-description: Test D controlled growth environment herbicide test, pre- and postemergence
Assay type: in vivo
condition: Postemergence, 125 g ai/ha; visual rating on scale 0 (no effect) to 100 (complete control), 14 to 21 d
Text: […]
Plant response rating, Bromegrass, Downy values by entry
Please reply with the value in numeric form only.

Record excerpt, results attached:
Value lookup for Plant response rating, Bromegrass, Downy; key = "CCOC(=O)Oc1c(C)nn(C)c(=O)c1-c1c(C)sc2c(C)cc(C)cc12"
50

Now the molecule "CCC(=O)Oc1c(C)nn(C)c(=O)c1-c1c(C)sc2ccc(C)cc12"
40

Now the molecule "CC(=O)Oc1c(C)nn(C)c(=O)c1-c1c(C)sc2ccc(C)cc12"
50

---
Value lookup for Plant response rating, Bromegrass, Downy; key = "Cc1ccc2sc(C)c(-c3c(O)c(C)nn(C)c3=O)c2c1"
10

Now the molecule "Cc1ccc2ccccc2c1-c1c(O)c(C)nn(C)c1=O"
70

====

Plant response rating, Waterhemp values by entry
Test system: waterhemp (common waterhemp, Amaranthus rudis)
measurement-description: Test E greenhouse herbicide test, pre- and postemergence
Type: in vivo
condition: 125 g ai/ha, Preemergence; scale 0 to 100 (0 no effect, 100 complete control)
Please reply with the value in numeric form only.

Value lookup for Plant response rating, Waterhemp; key = "Cc1cc(C)c2sc(C)c(-c3c(OC(=O)OCCCl)c(C)nn(C)c3=O)c2c1"
70

Now the compound "CC(=O)Oc1c(C)nn(C)c(=O)c1-c1c(C)sc2ccc(C)cc12"
100

Now the compound "Cc1ccc2sc(C)c(-c3c(O)c(C)nn(C)c3=O)c2c1"
100

With those in mind, consider the next compound.
Value lookup for Plant response rating, Waterhemp; key = "CCOC(=O)Oc1c(C)nn(C)c(=O)c1-c1c(CC)ccc2ccccc12"
98

====

System: pigweed (Amaranthus retroflexus)
measurement-description: Test C greenhouse herbicide test, pre- and postemergence
Format: in vivo
condition: Postemergence, 125 g ai/ha; scale 0 to 100, 0 is no effect, 100 is complete control
Output true (1) for records whose Plant response rating, Pigweed is lower than 80, false (0) for records at or above 80.

Lab note: Plant response rating, Pigweed threshold 80. Does this compound come in strictly under it? "CC(=O)Oc1c(C)nn(C)c(=O)c1-c1c(C)sc2ccc(C)cc12"
false (0)

---
Lab note: Plant response rating, Pigweed threshold 80. Does this compound come in strictly under it? "Cc1ccc2ccccc2c1-c1c(O)c(C)nn(C)c1=O"
false (0)

Now the compound "C#CCOC(=O)Oc1c(C)nn(C)c(=O)c1-c1c(C)sc2ccc(C)cc12"
false (0)

Now the compound "COc1nn(C)c(=O)c(-c2c(C)sc3ccccc23)c1O"
true (1)

Now the compound "CC(=O)Oc1c(C)nn(C)c(=O)c1-c1c(C)oc2c(C)cc(C)cc12"
true (1)

Now the compound "Cc1ccc(-c2c(O)c(Br)nn(C)c2=O)c2ccccc12"
true (1)

Now the compound "CCOC(=O)Oc1c(C)nn(C)c(=O)c1-c1c(C)sc2ccc(C)cc12"
false (0)

Now the compound "CC(=O)Oc1c(C#N)nn(C)c(=O)c1-c1c(C)ccc2ccccc12"
false (0)

Now the compound "COc1nn(C)c(=O)c(-c2c(C)sc3ccc(Cl)cc23)c1O"
false (0)

Now the compound "Cc1ccc2ccccc2c1-c1c(O)c(Cl)nn(C)c1=O"
false (0)

Now the compound "CC(=O)Oc1c(C)nn(C)c(=O)c1-c1c(C)oc2ccc(C)cc12"
true (1)

====

System: ryegrass, Italian (Italian ryegrass, Lolium multiflorum)
measurement-description: Test D controlled growth environment herbicide test, pre- and postemergence
Assay type: in vivo
condition: Postemergence, 31 g ai/ha; scale 0 to 100 (0 no effect, 100 complete control)
Ryegrass, Italian plant response rating values by entry
Please reply with the value in numeric form only.

Record excerpt, results attached:
Tell me reported Ryegrass, Italian plant response rating for CCC(=O)Oc1c(C)nn(C)c(=O)c1-c1c(C)sc2ccc(C)cc12 [Compound 42] , tested with ryegrass, Italian (Italian ryegrass, Lolium multiflorum).
75

Now the molecule CC(=O)Oc1c(Br)nn(C)c(=O)c1-c1c(C)ccc2ccccc12 [Compound 129]
80

---
Tell me reported Ryegrass, Italian plant response rating for Cc1ccc(-c2c(O)c(Br)nn(C)c2=O)c2ccccc12 [Compound 52] , tested with ryegrass, Italian (Italian ryegrass, Lolium multiflorum).
40

Now the molecule CCOC(=O)Oc1c(C)nn(C)c(=O)c1-c1c(C)sc2ccc(C)cc12 [Compound 82]
85

Now the molecule Cc1nn(C)c(=O)c(-c2c(C)sc3ccc(Cl)cc23)c1O [Compound 104]
90

Now the molecule Cc1cc(C)c2sc(C)c(-c3c(OC(=O)OC(C)C)c(C)nn(C)c3=O)c2c1 [Compound 67]
85

====

Tested on: corn (Zea mays)
measurement-description: Test C greenhouse herbicide test, pre- and postemergence
Format: in vivo
condition: Postemergence, 250 g ai/ha; scale 0 to 100, 0 no effect, 100 complete control; 13 to 15 d
From the text: […]
Plant response rating, Corn values by entry
Please reply with the value in numeric form only.

Record excerpt, results attached:
Value lookup for Plant response rating, Corn; key = "CC(=O)Oc1c(C)nn(C)c(=O)c1-c1ccc(F)c2ccccc12"
25

Now the molecule "CCC(=O)Oc1c(C)nn(C)c(=O)c1-c1c(C)sc2ccc(Cl)cc12"
50

Now the molecule "CCC(=O)Oc1c(Cl)nn(C)c(=O)c1-c1c(C)sc2ccc(Cl)cc12"
10

---
Value lookup for Plant response rating, Corn; key = "CCOC(=O)Oc1c(C)nn(C)c(=O)c1-c1c(C)sc2ccc(C)cc12"
5

Now the molecule "CCC(=O)Oc1c(C)nn(C)c(=O)c1-c1c(C)sc2c(C)cc(C)cc12"
15

Now the molecule "Cc1cc(C)c2ccccc2c1-c1c(OS(C)(=O)=O)c(C)nn(C)c1=O"
5
